Data provenance: ChEMBL document CHEMBL4304758

- measuredTarget: NAD-dependent protein deacetylase sirtuin-1 (Homo sapiens, UniProt Q96EB6)
- Sequence (Q96EB6 whole entry): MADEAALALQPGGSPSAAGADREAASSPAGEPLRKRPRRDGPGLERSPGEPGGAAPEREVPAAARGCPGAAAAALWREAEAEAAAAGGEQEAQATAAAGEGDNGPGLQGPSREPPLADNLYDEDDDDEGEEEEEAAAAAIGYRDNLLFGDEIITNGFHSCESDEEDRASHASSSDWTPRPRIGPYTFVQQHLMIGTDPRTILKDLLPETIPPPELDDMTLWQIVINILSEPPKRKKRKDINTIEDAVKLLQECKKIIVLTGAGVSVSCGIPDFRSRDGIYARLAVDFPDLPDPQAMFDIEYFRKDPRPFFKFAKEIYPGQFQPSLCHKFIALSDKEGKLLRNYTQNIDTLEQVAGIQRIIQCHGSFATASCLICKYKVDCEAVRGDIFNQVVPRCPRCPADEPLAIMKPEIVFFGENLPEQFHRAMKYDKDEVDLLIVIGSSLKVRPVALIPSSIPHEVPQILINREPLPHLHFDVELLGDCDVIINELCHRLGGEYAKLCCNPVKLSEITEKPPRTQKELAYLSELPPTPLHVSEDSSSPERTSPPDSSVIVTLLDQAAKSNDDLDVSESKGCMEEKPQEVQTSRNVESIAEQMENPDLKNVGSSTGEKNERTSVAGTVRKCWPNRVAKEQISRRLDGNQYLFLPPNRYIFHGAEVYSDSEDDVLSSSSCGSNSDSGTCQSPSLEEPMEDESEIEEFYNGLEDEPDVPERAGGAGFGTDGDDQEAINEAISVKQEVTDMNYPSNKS
- assay: Inhibition of recombinant human C-terminal His6-tagged SIRT1 (Met1 to Ser747 residues) demyristoylase activity expressed in Escherichia coli using p53(Myr)-AMC as substrate measured after 3 hrs in presence of NAD+ and trypsin by fluorescence assay
Non-standard residues stand in square brackets, D forms with d. Residues, ends and D or L forms follow the SMILES beside them. *: point of attachment. Phenylacetyl(4-E-phenylazo) = O=C(Cc1ccc(/N=N/c2ccccc2)cc1)*; Lys(thiomyristoyl) = CCCCCCCCCCCCCC(=S)NCCCC[C@H](N)C(=O)O; X5 = CCN(CC)c1ccc(/N=N/c2ccc(CC(=O)*)cc2)cc1; X4 = CN(C)c1ccc(/N=N/c2ccc(CC(=O)*)cc2)cc1; X1 = O=C(Cc1ccc(/N=N/c2ccc(O)cc2)cc1)*
# note: boundary value 80 nM maps to condition not met; IC50 below it maps to condition met

>  <compound>
CC[C@H](C)[C@H](NC(C)=O)C(=O)N[C@@H](CCCCNC(=O)Cc1ccc(/N=N/c2ccccc2)cc1)C(=O)N[C@@H](CCCNC(=N)N)C(N)=O

>  <group>
condition not met

$$$$
>  <compound>
CCCCCCCCCCCCCC(=S)NCCCC[C@H](NC(=O)[C@@H](NC(=O)[C@H](CCCNC(=N)N)NC(C)=O)[C@@H](C)CC)C(=O)N[C@@H](CCCNC(=N)N)C(=O)N[C@@H](Cc1ccc(O)cc1)C(N)=O (Ac-RI[Lys(thiomyristoyl)]RY-NH2)

>  <group>
condition met

$$$$
>  <compound>
Cc1cc(C)nc(SCC(=O)Nc2ncc(Cc3cccc4ccccc34)s2)n1

>  <group>
condition not met

$$$$
>  <compound>
CC[C@H](C)[C@H](NC(=O)[C@H](CCCNC(=N)N)NC(C)=O)C(=O)N[C@@H](CCCCNC(=O)Cc1ccc(/N=N/c2ccc(O)cc2)cc1)C(=O)N[C@@H](CCCNC(=N)N)C(=O)N[C@@H](Cc1ccc(O)cc1)C(N)=O (Ac-RIK(X1)RY-NH2)

>  <group>
condition met

$$$$
>  <compound>
CC[C@H](C)[C@H](NC(=O)[C@H](CCCNC(=N)N)NC(C)=O)C(=O)N[C@@H](CCCCNC(=O)Cc1ccc(/N=N/c2ccc(N(CC)CC)cc2)cc1)C(=O)N[C@@H](CCCNC(=N)N)C(=O)N[C@@H](Cc1ccc(O)cc1)C(N)=O (Ac-RIK(X5)RY-NH2)

>  <group>
condition not met

$$$$
>  <compound>
CC[C@H](C)[C@H](NC(=O)[C@H](CCCNC(=N)N)NC(C)=O)C(=O)N[C@@H](CCCCNC(=O)Cc1ccc(/N=N/c2ccccc2)cc1)C(=O)N[C@@H](CCCNC(=N)N)C(=O)N[C@@H](Cc1ccc(O)cc1)C(N)=O (Ac-RIK(Phenylacetyl(4-E-phenylazo))RY-NH2)

>  <group>
condition met

$$$$
>  <compound>
CC[C@H](C)[C@H](NC(=O)[C@H](CCCCNC(=O)Cc1ccc(/N=N/c2ccccc2)cc1)NC(=O)[C@@H](NC(C)=O)C(C)C)C(=O)N[C@@H](CCCCN)C(=O)N[C@@H](CCCCN)C(N)=O (Ac-VK(Phenylacetyl(4-E-phenylazo))IKK-NH2)

>  <group>
condition not met

$$$$
>  <compound>
CC[C@H](C)[C@H](NC(=O)[C@H](CCCNC(=N)N)NC(C)=O)C(=O)N[C@@H](CCCCNC(=O)Cc1ccc(/N=N/c2ccc(N(C)C)cc2)cc1)C(=O)N[C@@H](CCCNC(=N)N)C(=O)N[C@@H](Cc1ccc(O)cc1)C(N)=O (Ac-RIK(X4)RY-NH2)

>  <group>
condition not met

$$$$
